# Test system: HepG2 cell line
# Method Description: Cytotoxicity evaluation, MTT assay
# Format: cell-based, human
# Condition Parameters: HepG2, 72 h incubation, mean ± SD of three independent experiments
Quantity: CC50 (µM)

INSERT INTO measurements (compound, target_desc, quantity, value_reported) VALUES
  ('N=C(N)c1ccc(OCCCCCOc2ccc(C(=N)N)cc2)cc1 [Pentamidine, reference compound]', 'HepG2 cell line', 'CC50', 2.3);
